Test: Cytotoxic concentration required to cause microscopically detectable alteration of normal cell morphology of HeLa cells
Format: cell-based
Conditions: human, read-out: CC50
Readout: MCC

Worked set:
- Cc1cccn2c(CSCc3ccccc3)cnc12: 4 µg/mL
- Cc1cccc2ncc(CSCCO)n12: 100 µg/mL

Item under review: Cc1c(Br)cn2c(CSCCO)cnc2c1Br . Reported MCC?
> 100 µg/mL

Item under review: Cc1ccn2c(CSCCCO)cnc2c1 . Reported MCC?
40 µg/mL

Item under review: Cc1c(Br)c(C)n2c(CSCc3ccccc3)cnc2c1Br . Reported MCC?
> 100 µg/mL

Item under review: Cc1ccn2c(CSCC(O)CO)cnc2c1 (configuration not stated) . Reported MCC?
400 µg/mL

Item under review: Cc1ccn2c(CSCc3ccccc3)cnc2c1 . Reported MCC?
40 µg/mL
